So I've got pIC50 readings for cMet enzyme (Homo sapiens, UniProt P08581), take a look.
pIC50: −log10 of the molar value. Where a name gives a salt, the structure may show the parent alone.

COMPOUND	pIC50
CC(Oc1cc(-c2ccnn2C)cnc1N)c1cc(F)ccc1C#N (stereo not shown) [Example 36, monohydrochloride]	< 4.80
CC(Oc1cc(-c2ccnn2C)cnc1N)c1cc(F)ccc1-n1ccnn1 (stereo not shown)	< 4.70
COc1ccc(F)cc1[C@@H](C)Oc1cc(-c2ccnn2C)nnc1N	< 4.70
COc1ccc(F)cc1[C@@H](C)Oc1cc(-c2cccnc2CO)cnc1N	< 4.81
COc1ccc(F)cc1C(C)Oc1cc(-c2c(C)noc2C)cnc1N (stereo not shown)	< 4.74
CC(Oc1cc(-c2cn(C)cn2)cnc1N)c1cc(F)ccc1Cl (stereo not shown)	< 4.72
CC(Oc1cc(-c2ccnn2C)nnc1N)c1cc(F)ccc1-n1cccn1 (stereo not shown)	< 4.70
C[C@@H](Oc1cc(-c2c(F)cnn2C)cnc1N)c1cc(F)ccc1-n1nccn1	5.13
COc1ccc(F)cc1C(C)Oc1cc(-c2cccnc2OCCO)cnc1N (stereo not shown)	< 4.71
COc1ncc(F)cc1C(C)Oc1cc(-c2ccnn2C)cnc1N (stereo not shown) [Example 33, monohydrochloride]	< 4.70
